Read-out: Intercellular Adhesion Molecule 1 (ICAM1), ICAM1 (gene 3383)
Experiment: BSK_KF3CT_ICAM1: BioMAP Diversity Plus: KF3CT Assay for Intercellular Adhesion Molecule 1 (ICAM1) Biomarker Activity (AID 2283067)
Details: primary human keratinocytes with fibroblasts; actives raise or lower the signal
Active and inactive are the calls of the source. Rule for the calls: active = hit-call score of the fitted dose curve at least 0.9, where 1 is the maximum; inactive = score below 0.9.
Write down one outcome, taken from 1 = active, 0 = inactive

Worked cases, answers included:
O=S(=O)(F)C(F)(F)C(F)(F)C(F)(F)C(F)(F)C(F)(F)C(F)(F)C(F)(F)C(F)(F)F | 0
C=CC(=O)OCC(CC)(COC(=O)C=C)COC(=O)C=C | 1
N#Cc1c(-c2ccc(Cl)cc2)[nH]c(C(F)(F)F)c1Br | 0
CSC(C)(C)C=NO | 0
O=c1ssc(Cl)c1Cl | 1

[Q] // outcome(item) with item = c1ccc2c(c1)sc1ccccc12
[A] 0

[Q] Entry Cc1cccc(N)c1 please
[A] 0

[Q] Item: Cc1c([N+](=O)[O-])cc2c(c1[N+](=O)[O-])C(C)(C)CC2(C)C
[A] 0

[Q] Ok, now ClC1=C(Cl)C2(Cl)C3C(Cl)C(Cl)CC3C1(Cl)C2(Cl)Cl (stereo not drawn)
[A] 1

[Q] Another compound: CCOP(=S)(S)OCC
[A] 0

[Q] Another compound to check: CCOS(=O)(=O)OCC
[A] 0

[Q] Input CCNc1nc(Cl)nc(NC(C)(C)C)n1
[A] 0

[Q] And what about the compound O=S1(=O)OCC2C(CO1)C1(Cl)C(Cl)=C(Cl)C2(Cl)C1(Cl)Cl (stereo not drawn) ?
[A] 0

* * *

Target: Hypoxia-inducible factor 1-alpha (Homo sapiens) (UniProt Q16665)
Sequence (Q16665 whole entry, looked up): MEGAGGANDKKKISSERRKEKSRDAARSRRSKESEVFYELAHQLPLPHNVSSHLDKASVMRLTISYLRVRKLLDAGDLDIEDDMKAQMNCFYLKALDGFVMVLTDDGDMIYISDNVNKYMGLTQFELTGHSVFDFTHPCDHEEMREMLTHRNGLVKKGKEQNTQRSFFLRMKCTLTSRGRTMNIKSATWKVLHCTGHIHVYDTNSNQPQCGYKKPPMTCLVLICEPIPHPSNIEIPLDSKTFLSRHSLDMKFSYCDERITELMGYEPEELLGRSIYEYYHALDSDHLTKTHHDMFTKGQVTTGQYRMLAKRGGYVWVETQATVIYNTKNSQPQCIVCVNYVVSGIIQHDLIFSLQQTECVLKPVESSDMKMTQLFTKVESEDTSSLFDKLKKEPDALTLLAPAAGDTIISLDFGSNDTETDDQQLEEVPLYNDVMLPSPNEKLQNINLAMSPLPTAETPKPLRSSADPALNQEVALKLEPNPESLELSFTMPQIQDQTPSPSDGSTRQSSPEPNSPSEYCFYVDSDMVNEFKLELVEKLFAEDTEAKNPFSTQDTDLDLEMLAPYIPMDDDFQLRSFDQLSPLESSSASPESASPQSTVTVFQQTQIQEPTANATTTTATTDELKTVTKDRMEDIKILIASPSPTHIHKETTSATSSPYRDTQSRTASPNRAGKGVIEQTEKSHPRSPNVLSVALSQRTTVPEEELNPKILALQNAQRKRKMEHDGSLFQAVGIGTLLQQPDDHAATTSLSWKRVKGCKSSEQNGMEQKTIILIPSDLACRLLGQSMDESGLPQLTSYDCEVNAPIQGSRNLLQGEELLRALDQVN
Assay: ATG_HIF1a_CIS: Attagene CIS-FACTORIAL HepG2 Assay for human Hypoxia Inducible Factor 1 (HIF1A) (AID 2282951)
Details: HepG2 Attagene cis-factorial HIF1a reporter transcription; actives raise or lower the signal
Calls of active or inactive are those of the source. How the source made its calls: active means hit-call score of the fitted dose curve at least 0.9, where 1 is the maximum; inactive means score below 0.9.
I would appreciate it if you answered using one of these outcomes: active, inactive

Example entries begin here.
N#Cc1ccc(O)cc1 | inactive
c1ccc2c(c1)Nc1ccccc1S2 | inactive
CC(C)CBr | inactive
CC(O)C#N (stereo not drawn) | inactive

[Q] Please let me know the test result on file for NC(=O)C(F)(F)C(F)(F)F .
[A] inactive

[Q] And the next one, CCOP(=S)(NC(C)C)Oc1ccccc1C(=O)OC(C)C (stereo not drawn) ?
[A] inactive

[Q] Same read-out for CCCCOCCOP(=O)(OCCOCCCC)OCCOCCCC ?
[A] inactive

[Q] Follow-up item: CCOc1ccc(C(C)(C)COCc2cccc(Oc3ccccc3)c2)cc1
[A] inactive

* * *

Assay: ATG_PXRE_CIS: Attagene CIS-FACTORIAL HepG2 Assay for human Pregnane X Receptor Element (PXRE) (AID 2282957)
Settings: HepG2 Attagene CIS-FACTORIAL PXRE reporter, mRNA; actives raise or lower the signal
Calls of active or inactive are those of the source. Rule for the calls: active = hit-call score of the fitted dose curve at least 0.9, where 1 is the maximum; inactive = score below 0.9.
// classify into label 1 for active, label 0 for inactive

Answered examples (6):
CSC(C)(C)C=NO | label 0
Nc1ccc(Cl)cc1 | label 0
CO/N=C(/C(=O)OC)c1ccccc1COc1ccccc1C | label 1
CC(C)CBr | label 0
CC(C)Nc1ccc(Nc2ccccc2)cc1 | label 1
O=S(=O)(c1ccc(O)cc1)c1ccc(O)cc1 | label 1

[Q] What was the test verdict on OCC1CO1 (stereo not given) ?
[A] label 0

[Q] Also, Cc1cc(C)c(C(=O)P(=O)(c2ccccc2)c2ccccc2)c(C)c1 please.
[A] label 1

[Q] Now consider N#Cc1c(-c2ccc(Cl)cc2)[nH]c(C(F)(F)F)c1Br and answer again.
[A] label 1

[Q] Consider next the compound CCOP(=S)(S)OCC in the same way.
[A] label 1

[Q] // next record N#C/C=C/c1ccccc1
[A] label 0

[Q] Consider next the compound COP(=O)(O)OC in the same way.
[A] label 1

[Q] One more compound: CCC(C)(C)c1ccc(O)cc1
[A] label 1

[Q] And O=C(O)C(F)(F)OC(F)(F)C(F)(F)OC(F)(F)C(=O)O ?
[A] label 0

[Q] Quick one: CC(C)(C)c1ccc(O)cc1
[A] label 1
